Recorded values, source ChEMBL document CHEMBL1143264.

- assay system: Neuronal acetylcholine receptor subunit alpha-7 (Rattus norvegicus)
- Sequence (Q05941 whole entry): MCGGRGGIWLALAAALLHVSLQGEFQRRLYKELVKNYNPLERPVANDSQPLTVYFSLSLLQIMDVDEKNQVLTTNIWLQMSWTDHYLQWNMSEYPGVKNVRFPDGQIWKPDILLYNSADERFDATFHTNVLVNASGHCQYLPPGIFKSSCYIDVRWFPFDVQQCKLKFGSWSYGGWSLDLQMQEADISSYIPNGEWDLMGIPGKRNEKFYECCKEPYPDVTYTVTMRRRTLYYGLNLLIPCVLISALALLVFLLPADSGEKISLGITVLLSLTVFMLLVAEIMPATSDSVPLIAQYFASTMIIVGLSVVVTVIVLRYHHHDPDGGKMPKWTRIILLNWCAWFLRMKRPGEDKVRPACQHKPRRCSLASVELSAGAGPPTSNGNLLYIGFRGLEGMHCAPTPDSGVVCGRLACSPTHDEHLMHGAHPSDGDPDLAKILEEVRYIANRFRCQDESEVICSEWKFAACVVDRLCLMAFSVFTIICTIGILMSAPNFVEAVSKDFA
- method notes: Displacement of [125I]alpha-Bungarotoxin from alpha-7 nAchR in rat brain cortex membrane
Each record's Ki is compared with A (below 20 µM), B (20 µM to below 40 µM), C (40 µM or more) to give its class.

                          smiles_structure  label_class
 0         CN1CCC[C@H]1[C@@H]1COc2ccccc2O1            B
 1             CN1CCC[C@H]1[C@H]1CNC(=O)O1            C
 2    Cl.c1ccc2c(c1)OC[C@H]([C@H]1CCCN1)O2            A
 3            CN1CCC[C@H]1[C@@H]1CNC(=O)O1            B
 4           CN1CCC[C@@H]1[C@@H]1CNC(=O)O1            C
 5  Cl.c1ccc2c(c1)OC[C@@H]([C@@H]1CCCN1)O2            B
 6         CN1CCC[C@@H]1[C@H]1COc2ccccc2O1            B
 7   Cl.c1ccc2c(c1)OC[C@H]([C@@H]1CCCN1)O2            B
 8            CN1CCC[C@@H]1[C@H]1CNC(=O)O1            C
 9     CN1CCC[C@@H]1[C@@H]1COc2ccccc2O1.Cl            A
10   Cl.c1ccc2c(c1)OC[C@@H]([C@H]1CCCN1)O2            B
11       CN1CCC[C@H]1[C@H]1COc2ccccc2O1.Cl            A

----------
Entries and their pKi
- assay system: Neuronal acetylcholine receptor; alpha4/beta2 (Rattus norvegicus, UniProt P09483+P12390)
- Sequence (P09483 whole entry): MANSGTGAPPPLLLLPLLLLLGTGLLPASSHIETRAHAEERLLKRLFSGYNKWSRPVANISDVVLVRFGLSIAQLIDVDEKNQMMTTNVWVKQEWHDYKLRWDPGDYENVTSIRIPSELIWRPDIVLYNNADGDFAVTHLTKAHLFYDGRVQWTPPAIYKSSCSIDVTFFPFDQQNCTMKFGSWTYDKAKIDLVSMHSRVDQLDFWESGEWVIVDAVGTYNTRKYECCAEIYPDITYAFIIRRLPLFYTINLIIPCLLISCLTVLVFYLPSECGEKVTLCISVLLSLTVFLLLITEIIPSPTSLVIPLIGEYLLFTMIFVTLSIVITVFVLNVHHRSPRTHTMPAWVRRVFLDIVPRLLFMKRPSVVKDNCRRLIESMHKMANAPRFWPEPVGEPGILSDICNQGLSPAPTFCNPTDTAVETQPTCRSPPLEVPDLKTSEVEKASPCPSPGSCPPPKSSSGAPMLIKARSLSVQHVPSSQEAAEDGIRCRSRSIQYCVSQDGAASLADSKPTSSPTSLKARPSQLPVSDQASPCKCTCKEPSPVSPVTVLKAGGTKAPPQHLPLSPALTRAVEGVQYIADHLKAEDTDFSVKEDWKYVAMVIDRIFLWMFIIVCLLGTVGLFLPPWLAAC
- Sequence (P12390 whole entry): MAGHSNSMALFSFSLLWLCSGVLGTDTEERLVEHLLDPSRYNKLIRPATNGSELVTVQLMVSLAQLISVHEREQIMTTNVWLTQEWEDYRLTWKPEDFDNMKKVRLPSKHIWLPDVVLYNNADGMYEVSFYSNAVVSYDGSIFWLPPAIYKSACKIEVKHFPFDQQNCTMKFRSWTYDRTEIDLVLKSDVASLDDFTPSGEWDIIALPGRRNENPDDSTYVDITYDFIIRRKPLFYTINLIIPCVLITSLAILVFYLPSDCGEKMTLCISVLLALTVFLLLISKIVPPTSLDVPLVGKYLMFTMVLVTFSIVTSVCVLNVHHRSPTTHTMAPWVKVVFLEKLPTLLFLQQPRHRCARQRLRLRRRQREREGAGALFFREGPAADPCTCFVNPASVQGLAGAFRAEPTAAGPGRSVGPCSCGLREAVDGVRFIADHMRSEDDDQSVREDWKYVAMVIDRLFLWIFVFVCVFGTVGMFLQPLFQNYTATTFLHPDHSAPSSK
- method notes: Displacement of [3H]epibatidine from alpha-4-beta-2 nAchR in rat brain cortex membrane
pKi: −log10 of the molar value.
readout: pKi

>>> df
                         smiles_structure                              assay_system  recorded_result
0     CN1CCC[C@@H]1[C@@H]1COc2ccccc2O1.Cl  Neuronal acetylcholine receptor; alpha4/beta2 (Rattus norvegicus, UniProt P09483+P12390)             4.36
1         CN1CCC[C@@H]1[C@H]1COc2ccccc2O1  Neuronal acetylcholine receptor; alpha4/beta2 (Rattus norvegicus, UniProt P09483+P12390)             4.90
2       CN1CCC[C@H]1[C@H]1COc2ccccc2O1.Cl  Neuronal acetylcholine receptor; alpha4/beta2 (Rattus norvegicus, UniProt P09483+P12390)             6.33
3  Cl.c1ccc2c(c1)OC[C@@H]([C@@H]1CCCN1)O2  Neuronal acetylcholine receptor; alpha4/beta2 (Rattus norvegicus, UniProt P09483+P12390)             5.68
4    Cl.c1ccc2c(c1)OC[C@H]([C@H]1CCCN1)O2  Neuronal acetylcholine receptor; alpha4/beta2 (Rattus norvegicus, UniProt P09483+P12390)             4.06

----------
Each entry below carries its reported pKi.
- assay system: Neuronal acetylcholine receptor; alpha4/beta2 (Rattus norvegicus, UniProt P09483+P12390)
- method notes: Displacement of [3H]epibatidine from alpha-4-beta-2 nAchR in rat brain cortex membrane
- Type: cell membranes
pKi: −log10 of the molar value.
readout: pKi

In [3]: df
Out[3]:
                        smiles_structure  readout  recorded_result
0          CN1CCC[C@@H]1[C@@H]1CNC(=O)O1      pKi             4.43
1            CN1CCC[C@H]1[C@H]1CNC(=O)O1      pKi             4.46
2           CN1CCC[C@H]1[C@@H]1CNC(=O)O1      pKi             5.57
3           CN1CCC[C@@H]1[C@H]1CNC(=O)O1      pKi             4.40
4  Cl.c1ccc2c(c1)OC[C@H]([C@@H]1CCCN1)O2      pKi             4.84
5  Cl.c1ccc2c(c1)OC[C@@H]([C@H]1CCCN1)O2      pKi             4.94
6        CN1CCC[C@H]1[C@@H]1COc2ccccc2O1      pKi             6.59

----------
Overview of reported Ki across a group of molecules:
- assay system: Adrenergic receptor alpha-2 (Rattus norvegicus, UniProt P22086+P19328+P22909)
- method notes: Displacement of [3H]RS 79948-197 from alpha-2 adrenergic receptor in rat brain cortex membrane
- Format: cell membranes
readout: Ki (µM)

In [3]: df
Out[3]:
                         smiles_structure                              assay_system  recorded_result
0       CN1CCC[C@H]1[C@H]1COc2ccccc2O1.Cl  Adrenergic receptor alpha-2 (Rattus norvegicus, UniProt P22086+P19328+P22909)             1.67
1   Cl.c1ccc2c(c1)OC[C@H]([C@@H]1CCCN1)O2  Adrenergic receptor alpha-2 (Rattus norvegicus, UniProt P22086+P19328+P22909)             0.64
2   Cl.c1ccc2c(c1)OC[C@@H]([C@H]1CCCN1)O2  Adrenergic receptor alpha-2 (Rattus norvegicus, UniProt P22086+P19328+P22909)             6.33
3    Cl.c1ccc2c(c1)OC[C@H]([C@H]1CCCN1)O2  Adrenergic receptor alpha-2 (Rattus norvegicus, UniProt P22086+P19328+P22909)               14
4  Cl.c1ccc2c(c1)OC[C@@H]([C@@H]1CCCN1)O2  Adrenergic receptor alpha-2 (Rattus norvegicus, UniProt P22086+P19328+P22909)             1.35
5     CN1CCC[C@@H]1[C@@H]1COc2ccccc2O1.Cl  Adrenergic receptor alpha-2 (Rattus norvegicus, UniProt P22086+P19328+P22909)             6.67
